meta.source: BindingDB's records for doi:10.1021/jm070521y

# TARGET_OR_SYSTEM: 5-hydroxytryptamine receptor 6 (Homo sapiens, UniProt P50406)
# Sequence (P50406 whole entry): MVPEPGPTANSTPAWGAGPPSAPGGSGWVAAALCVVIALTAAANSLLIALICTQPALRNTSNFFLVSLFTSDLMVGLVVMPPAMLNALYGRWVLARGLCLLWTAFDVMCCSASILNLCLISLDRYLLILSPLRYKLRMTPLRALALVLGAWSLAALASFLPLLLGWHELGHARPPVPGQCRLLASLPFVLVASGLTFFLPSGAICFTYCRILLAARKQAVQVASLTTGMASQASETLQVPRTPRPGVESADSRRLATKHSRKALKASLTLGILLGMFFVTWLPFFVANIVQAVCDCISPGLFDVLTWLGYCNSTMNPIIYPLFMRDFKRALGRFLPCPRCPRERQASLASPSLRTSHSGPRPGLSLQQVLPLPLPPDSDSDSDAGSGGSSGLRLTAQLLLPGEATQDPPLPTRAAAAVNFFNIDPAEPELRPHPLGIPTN
# TEST_SUMMARY: Radioligand Labeled Binding Assay and cAMP Production
# DETAILS: pH 7.4; 22 °C
MEASURED_ATTRIBUTE: pKi
Give bare numbers, as −log10 of the molar value.

Challenge: Recorded pKi of "Cc1nc(N)sc1S(=O)(=O)n1cc(CCN)c2ccccc21" , please.
Response given: 8.00

====

# TARGET_OR_SYSTEM: 5-hydroxytryptamine receptor 6 (Homo sapiens, UniProt P50406)
# TEST_SUMMARY: Radioligand Labeled Binding Assay and cAMP Production
# DETAILS: pH 7.4; 22 °C
MEASURED_ATTRIBUTE: pEC50
Answers are plain numbers, as −log10 of the molar value.

INPUT_SMILES	TARGET_OR_SYSTEM	pEC50
COc1ccc(S(=O)(=O)n2cc(CCN)c3ccccc32)cc1OC	5-hydroxytryptamine receptor 6 (Homo sapiens, UniProt P50406)	7.76

Now take the following molecule into account.
Challenge: Param readout= pEC50; system= 5-hydroxytryptamine receptor 6 (Homo sapiens, UniProt P50406); entry= "Cc1nc(N)sc1S(=O)(=O)n1cc(CCN)c2ccccc21" ; returns value.
Response given: 8.02
